PROTOCOL DETAILS: Plasma pharmacokinetics of bimiralisib, non-compartmental analysis (LC-MS)
Type: in vivo, human
TEST CONTEXT: human, plasma, oral, 140 mg, Intermittent Dose Schedule B, 140 mg, Day 1, 3 patients; read-out: Cmax Mean (%CV)
MEASURED METRIC: Cmax (ng/mL)
Express it in ng/mL; write the number only.

// returns reported Cmax for input Nc1cc(C(F)(F)F)c(-c2nc(N3CCOCC3)nc(N3CCOCC3)n2)cn1
1010

----------
PROTOCOL DETAILS: Plasma pharmacokinetics of bimiralisib, non-compartmental analysis (LC-MS)
Type: in vivo, human
TEST CONTEXT: human, plasma, oral, 80 mg, Continuous Dosing, 80 mg, Day 15, 7 patients; read-out: Cmax Mean (%CV)
MEASURED METRIC: Cmax (ng/mL)
Express it in ng/mL; write the number only.

// returns reported Cmax for input Nc1cc(C(F)(F)F)c(-c2nc(N3CCOCC3)nc(N3CCOCC3)n2)cn1
766

----------
PROTOCOL DETAILS: Plasma pharmacokinetics of bimiralisib, non-compartmental analysis (LC-MS)
Type: in vivo, human
TEST CONTEXT: human, plasma, oral, 120 mg, Intermittent Dose Schedule B, 120 mg, Day 1, 3 patients; read-out: AUC0–8 Geometric Mean (%CV)
MEASURED METRIC: AUC(0-t)

// returns reported AUC(0-t) for input Nc1cc(C(F)(F)F)c(-c2nc(N3CCOCC3)nc(N3CCOCC3)n2)cn1
1530 ng·h/mL

----------
PROTOCOL DETAILS: Plasma pharmacokinetics of bimiralisib, non-compartmental analysis (LC-MS)
Assay type: in vivo, human
TEST CONTEXT: human, plasma, oral, 160 mg, Intermittent Dose Schedule A, 160 mg, Day 8, 3 patients; read-out: AUC0–24 Geometric Mean (%CV)
MEASURED METRIC: AUC(0-t) (ng·h/mL)
Express it in ng·h/mL; write the number only.

// returns reported AUC(0-t) for input Nc1cc(C(F)(F)F)c(-c2nc(N3CCOCC3)nc(N3CCOCC3)n2)cn1
11100

----------
PROTOCOL DETAILS: Plasma pharmacokinetics of bimiralisib, non-compartmental analysis (LC-MS)
Type: in vivo, human
TEST CONTEXT: human, plasma, oral, 80 mg, Intermittent Dose Schedule A, 80 mg, Day 8, n = 1; read-out: AUC0–24 Geometric Mean (%CV)
MEASURED METRIC: AUC(0-t) (µg·h/mL)
Express it in µg·h/mL; write the number only.

// returns reported AUC(0-t) for input Nc1cc(C(F)(F)F)c(-c2nc(N3CCOCC3)nc(N3CCOCC3)n2)cn1 [bimiralisib]
6.74

----------
PROTOCOL DETAILS: Plasma pharmacokinetics of bimiralisib, non-compartmental analysis (LC-MS)
Format: in vivo, human
TEST CONTEXT: human, plasma, oral, 120 mg, Intermittent Dose Schedule B, 120 mg, Day 1, 3 patients; read-out: Tmax Median, (Range)
MEASURED METRIC: Tmax (h)
Express it in h; write the number only.

// returns reported Tmax for input Nc1cc(C(F)(F)F)c(-c2nc(N3CCOCC3)nc(N3CCOCC3)n2)cn1 [bimiralisib]
1
